Where do these numbers come from? They come from ChEMBL document CHEMBL5512603.

assay-text: Oral bioavailability in Sprague-Dawley rat at 20 mg/kg
Assay type: ADME, organism-based
condition-description: in vivo
So I've got a bunch of compounds here, and I need their bioavailability values.
Note: state the figure and append the unit.

Exam item: Specify measured bioavailability for O=C[C@@H](C[C@H]1CCNC1=O)NC(=O)[C@H]1[C@@H]2CCC[C@@H]2CN1C(=O)COc1ccc(Cl)cc1Cl .
Marked response: 14.6%

Exam item: Give the measured bioavailability for CC1(C)[C@@H]2[C@H]1CN(C(=O)COc1ccc(OC(F)(F)F)cc1)[C@H]2C(=O)N[C@@H](C=O)C[C@H]1CCNC1=O
Marked response: 11.2%

* * *

study-system: Replicase polyprotein 1ab (Severe acute respiratory syndrome coronavirus 2, UniProt P0DTD1)
assay-text: Inhibition of 2019-nCoV-2 3CLp using fluorescent substrate by FRET assay
For each record, check the reported IC50: if it is below 700 nM write Met, else write Not met.

Exam item: Bench note: check whether CC(C)(C)NC(=O)[C@@H](c1cccnc1)N(C(=O)c1ccno1)c1ccc(-c2ccccc2)cc1 shows IC50 below 700 nM
Marked response: Not met

Exam item: I'd appreciate it if you could check whether CCn1nnnc1Cn1c(=O)[nH]/c(=N\c2cc3cn(C)nc3cc2Cl)n(Cc2cc(F)c(F)cc2F)c1=O has IC50 smaller than 700 nM.
Marked response: Met

Exam item: Please state whether IC50 is below 700 nM for C[C@H](NC(=O)[C@@H](c1cccnc1)N(C(=O)c1ccco1)c1ccc(C(C)(C)C)cc1)c1ccccc1
Marked response: Not met

Exam item: I'd appreciate it if you could check whether C[C@H](NC(=O)[C@@H](c1cccnc1)N(C(=O)c1ccco1)c1ccc(-c2ccccc2)cc1)c1ccccc1 has IC50 smaller than 700 nM.
Marked response: Met

Exam item: Problem: For the molecule Cn1cc2cc(/N=c3\[nH]c(=O)n(Cc4nnn[nH]4)c(=O)n3Cc3cc(F)c(F)cc3F)c(Cl)cc2n1 , is IC50 under 700 nM?
Marked response: Met

* * *

Would you mind telling me the reported bioavailability of each entry?
assay-text: Bioavailability in Sprague-Dawley rat at 20 mg/kg, ip
Assay type: ADME, organism-based
condition-description: in vivo
The answer is to be given in %; state only the numeric part.

Exam item: Return value of bioavailability for input O=C[C@@H](C[C@H]1CCNC1=O)NC(=O)[C@H]1[C@@H]2CCC[C@@H]2CN1C(=O)COc1ccc(Cl)cc1Cl , no commentary.
Marked response: 76.2

Exam item: Answer with the recorded bioavailability of CC1(C)[C@@H]2[C@H]1CN(C(=O)COc1ccc(OC(F)(F)F)cc1)[C@H]2C(=O)N[C@@H](C=O)C[C@H]1CCNC1=O only.
Marked response: 78

* * *

assay-text: Cmax in po dosed rat
Type: ADME, organism-based
condition-description: in vivo
observation-type: Cmax (ng/mL)
Express the result in ng/mL but write the number alone.

Exam item: Please report Cmax for the following compound: Cn1cc2cc(/N=c3\[nH]c(=O)n(Cc4cnn[nH]4)c(=O)n3Cc3cc(F)c(F)cc3F)c(Cl)cc2n1
Marked response: 6270

* * *

study-system: UniProt:P0DTD1
assay-text: Inhibition of SARS-CoV-2 3CLp using fluorescent substrate by FRET assay
Exercise: state measured pIC50 for each of the compounds provided.
The scale used: pIC50 is minus the common logarithm of the concentration in molar units.

Exam item: Name the recorded pIC50 of the item CC1COP(=O)(Oc2cc(O)c3c(=O)c(O)c(-c4cc(O)c(O)c(O)c4)oc3c2)OC1 (stereo unspecified) in your answer.
Marked response: 5.18

Exam item: Look up pIC50 of C=C(Cl)C(=O)N(c1ccc(-c2ccccc2)cc1)[C@@H](C(=O)N[C@@H](C)c1ccccc1)c1cccnc1 and report it.
Marked response: 5.37

Exam item: Tell us which pIC50 value is on record for CC(C)CCOc1cc(O)c2c(=O)c(O)c(-c3cc(O)c(O)c(O)c3)oc2c1
Marked response: 5.72

Exam item: Specify reported pIC50 for the compound shown: CC(C)[C@H]1C(=O)N2C[C@]3(C[C@H]2C#N)C(=O)Nc2ccc(cc23)CCCCCN1C(=O)c1cc2ccc(C(F)(F)F)cc2[nH]1
Marked response: 7.00

Exam item: Give the reported pIC50 for this compound. CCOc1cc(O)c2c(=O)c(O)c(-c3cc(O)c(O)c(O)c3)oc2c1
Marked response: 6.13

Exam item: Hello, please tell me recorded pIC50 for this one: O=C[C@@H](C[C@H]1CCNC1=O)NC(=O)[C@H]1[C@@H]2CCC[C@@H]2CN1C(=O)OCc1ccccc1
Marked response: 7.29

Exam item: State its pIC50 for this compound: C[C@H](NC(=O)[C@@H](c1cccnc1)N(C(=O)CCl)c1ccc(-c2ccccc2)cc1)c1ccccc1
Marked response: 7.30

Exam item: Annotate the compound O=c1c(O)c(-c2cc(O)c(O)c(O)c2)oc2cc(OCC3CCCC3)cc(O)c12 with its measured pIC50.
Marked response: 5.61

Exam item: Return value of pIC50 for input C[C@H](NC(=O)[C@@H](c1cccnc1)N(C(=O)CC#N)c1ccc(-c2ccccc2)cc1)c1ccccc1 , no commentary.
Marked response: 6.30

Exam item: Please report pIC50 for the following compound: O=C1c2c(O)cc(O)c([Se][Se]c3c(O)cc(O)c4c3OC(c3cc(O)c(O)c(O)c3)C(O)C4=O)c2CC(c2cc(O)c(O)c(O)c2)C1O (stereo unspecified)
Marked response: 6.09

* * *

assay-text: Half life in po dosed rat
Type: ADME, organism-based
condition-description: in vivo
observation-type: half-life (h)
Quick note: give the figure in h, leave out the unit.

Exam item: Identify measured half-life associated with Cn1cc2cc(/N=c3\[nH]c(=O)n(Cc4cnn[nH]4)c(=O)n3Cc3cc(F)c(F)cc3F)c(Cl)cc2n1
Marked response: 2.51

* * *

System: SARS-CoV-2
assay-text: Antiviral activity against wild type SARS-CoV-2 infected in African green monkey VeroE6/TMPRSS2 cells at 1 MOI assessed as reduction in plaque formation measured after 48 hrs by measuring luciferase activity assay
Type: functional, organism-based
condition-description: Severe acute respiratory syndrome coronavirus 2, VeroE6/TMPRSS2, 48 h
observation-type: pEC50
To interpret pEC50, take it as minus log10 of a concentration measured in moles per litre.

Exam item: Query pEC50 for [2H][C@](C(=O)N[C@@H](C)c1ccc(F)cc1)(c1cccnc1)N(C(=O)C(C)=O)c1ccc2c(c1)oc1ccccc12
Marked response: 7.94

* * *

study-system: Replicase polyprotein 1ab (Severe acute respiratory syndrome coronavirus 2)
assay-text: Inhibition of SARS-CoV-2 3CLp by mass spectrometry
pIC50: −log10 of the molar value.
Provide the reported pIC50 of each item.

Exam item: Give reported pIC50 value for Cn1cnc(Cn2c(=O)nc(Nc3cc4sc(NCC(F)F)nc4cc3Cl)n(Cc3cc(F)c(F)c(F)c3)c2=O)n1
Marked response: > 6.00

Exam item: For the compound CC(=O)Nc1nc2cc(Cl)c(Nc3nc(=O)n(Cc4ncn(C)n4)c(=O)n3Cc3cc(F)c(F)c(Cl)c3)cc2s1 , report pIC50.
Marked response: > 6.00

Exam item: Consider the compound CCn1cc2cc(Nc3nc(=O)n(-c4cncc(Cl)c4)c(=O)n3Cc3cc(C#N)ccc3Cl)ccc2n1 and give its recorded pIC50.
Marked response: 6.45

Exam item: Give the measured pIC50 for Cc1nc2cc(Br)c(Nc3nc(=O)n(Cc4ncn(C)n4)c(=O)n3Cc3cc(F)c(F)c(F)c3)cc2s1
Marked response: > 6.00

* * *

Please provide measured pEC50 for the entries that follow.
study-system: Protein cereblon/Replicase polyprotein 1ab (Severe acute respiratory syndrome coronavirus 2, UniProt P0DTD1+Q96SW2)
Sequence (Q96SW2 whole entry, other chains not shown): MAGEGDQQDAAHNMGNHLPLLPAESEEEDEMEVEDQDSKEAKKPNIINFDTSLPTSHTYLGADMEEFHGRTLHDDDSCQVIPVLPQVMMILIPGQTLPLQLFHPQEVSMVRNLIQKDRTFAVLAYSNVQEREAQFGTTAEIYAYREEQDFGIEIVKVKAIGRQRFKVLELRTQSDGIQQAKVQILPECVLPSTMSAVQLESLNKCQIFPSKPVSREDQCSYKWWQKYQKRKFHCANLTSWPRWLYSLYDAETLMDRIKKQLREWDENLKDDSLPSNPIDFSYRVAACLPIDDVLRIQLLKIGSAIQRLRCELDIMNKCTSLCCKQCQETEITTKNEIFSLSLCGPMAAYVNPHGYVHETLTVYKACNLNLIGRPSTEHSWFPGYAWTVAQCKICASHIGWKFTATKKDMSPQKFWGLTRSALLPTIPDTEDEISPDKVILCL
assay-text: PROTAC activity at SARS-CoV-2 Main protease/CRBN E3 ligase (unknown origin)
pEC50: −log10 of the molar value.

Exam item: Give a short answer stating reported pEC50 for Cn1cc2cc(/N=c3\[nH]c(=O)n(Cc4cn(CCC(=O)Nc5cccc6c5C(=O)N(C5CCC(=O)NC5=O)C6)nn4)c(=O)n3Cc3cc(F)c(F)cc3F)c(Cl)cc2n1 (stereo not drawn) .
Marked response: < 7.00

Exam item: Return the recorded pEC50 value; entry: Cn1cc2cc(/N=c3\[nH]c(=O)n(Cc4cn(CCOCCOCCOCC(=O)Nc5cccc6c5C(=O)N(C5CCC(=O)NC5=O)C6)nn4)c(=O)n3Cc3cc(F)c(F)cc3F)c(Cl)cc2n1 (stereo not drawn)
Marked response: > 7.00

Exam item: Using the record for Cn1cc2cc(/N=c3\[nH]c(=O)n(Cc4cn(CCCCC(=O)Nc5cccc6c5C(=O)N(C5CCC(=O)NC5=O)C6=O)nn4)c(=O)n3Cc3cc(F)c(F)cc3F)c(Cl)cc2n1 (stereo not drawn) , state its measured pEC50.
Marked response: > 7.00

* * *

study-system: Replicase polyprotein 1ab (Severe acute respiratory syndrome coronavirus 2, UniProt P0DTD1)
assay-text: Inhibition of recombinant SARS-CoV-2 3CLp using fluorogenic substrate by microplate reader
observation-type: pIC50
Answer as the number alone; pIC50 is minus log10 of concentration in mol/L.

Exam item: Output pIC50 of O=C1NCC[C@H]1C[C@H](NC(=O)[C@@H]1[C@H]2CCC[C@H]2CN1C(=O)COc1ccc(Cl)cc1Cl)C(=O)CF
Marked response: 7.74

Exam item: State, in one line, measured pIC50 of CC1(C)[C@@H]2[C@@H](C(=O)N[C@H](C=O)C[C@@H]3CCNC3=O)N(C(=O)COc3ccc(Cl)cc3)C[C@@H]21
Marked response: 8.05

Exam item: // Input: CC1(C)[C@@H]2[C@@H](C(=O)N[C@H](C=O)C[C@@H]3CCNC3=O)N(C(=O)COc3ccc(Cl)cc3Cl)C[C@@H]21 . Output its pIC50 only.
Marked response: 8.00

Exam item: For the compound O=C[C@H](C[C@@H]1CCNC1=O)NC(=O)[C@@H]1[C@H]2CCC[C@H]2CN1C(=O)COc1ccc(Cl)cc1 , give its reported pIC50.
Marked response: 8.05

Exam item: Look up and report measured pIC50 for this entry: O=C[C@H](C[C@@H]1CCNC1=O)NC(=O)[C@@H]1[C@H]2CCC[C@H]2CN1C(=O)COc1ccc(Cl)c(Cl)c1
Marked response: 7.72
